Reference for the values: patent US20220049017A1

target: T1, mouse PCSK9 (mouse, UniProt Q80W65 35-694, limits assumed); test: ProteOn SPR, captured antibody, pH 7.6;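 note: antibodies captured via anti-human Fc on a GLC sensor chip, PCSK9 binding sensorgrams fitted to a 1:1 Langmuir model giving on and off rates, with KD derived from them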
T1 construct: also called mPCSK9; PCSK9 mouse
T1 sequence (Q80W65 35-694 limits assumed): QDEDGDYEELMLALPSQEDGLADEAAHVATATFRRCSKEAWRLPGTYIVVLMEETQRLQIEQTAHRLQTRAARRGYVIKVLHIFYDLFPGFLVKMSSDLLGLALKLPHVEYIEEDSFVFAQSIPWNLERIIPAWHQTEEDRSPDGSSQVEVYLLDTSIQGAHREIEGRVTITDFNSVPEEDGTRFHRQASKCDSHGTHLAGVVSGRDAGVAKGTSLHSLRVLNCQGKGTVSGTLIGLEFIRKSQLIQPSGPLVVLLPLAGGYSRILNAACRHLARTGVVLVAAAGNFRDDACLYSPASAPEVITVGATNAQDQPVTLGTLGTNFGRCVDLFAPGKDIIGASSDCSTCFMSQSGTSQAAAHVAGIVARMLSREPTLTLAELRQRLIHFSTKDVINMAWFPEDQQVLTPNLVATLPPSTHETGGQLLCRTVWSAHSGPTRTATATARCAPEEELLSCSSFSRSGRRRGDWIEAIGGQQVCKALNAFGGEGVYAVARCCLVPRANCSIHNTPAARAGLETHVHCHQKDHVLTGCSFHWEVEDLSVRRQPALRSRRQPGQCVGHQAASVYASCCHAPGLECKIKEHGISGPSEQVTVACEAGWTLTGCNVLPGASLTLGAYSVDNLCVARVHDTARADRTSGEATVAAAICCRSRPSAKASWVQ
Response field label takes TRUE when Kd is strictly below 0.6 nM and FALSE in all other cases.

Here's what some known entries look like.
>  <binder>
CL-148489 (antibody, V domains shown, Human antibody with a kappa light chain) VH: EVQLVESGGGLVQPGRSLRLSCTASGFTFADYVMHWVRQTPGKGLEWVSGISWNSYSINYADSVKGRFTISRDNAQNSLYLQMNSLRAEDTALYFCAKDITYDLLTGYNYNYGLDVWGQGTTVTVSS VL: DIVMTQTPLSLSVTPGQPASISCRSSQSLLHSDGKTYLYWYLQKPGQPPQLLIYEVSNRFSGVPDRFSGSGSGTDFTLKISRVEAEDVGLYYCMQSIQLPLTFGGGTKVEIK

>  <category>
FALSE

$$$$
>  <binder>
CL-148219 (antibody, V domains shown, NLT motif in heavy chain framework 3 confirmed N-glycosylated by mass spectrometry, Human antibody, captured through anti-human Fc in the SPR assay) VH: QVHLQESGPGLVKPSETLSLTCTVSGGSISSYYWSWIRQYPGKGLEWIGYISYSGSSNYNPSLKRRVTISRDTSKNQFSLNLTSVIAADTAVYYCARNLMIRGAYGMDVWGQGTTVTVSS VL: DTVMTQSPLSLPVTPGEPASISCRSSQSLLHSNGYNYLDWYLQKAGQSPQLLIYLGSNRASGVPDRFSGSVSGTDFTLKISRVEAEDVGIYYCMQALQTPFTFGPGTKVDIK

>  <category>
TRUE

$$$$
>  <binder>
CL-274711 (antibody, V domains shown, Human antibody with a kappa light chain, generated by immunising a PCSK9 knockout mouse) VH: QVQLQESGPGLVKPSQTLSLTCTVSGGSISSGGYYWSWIRQHPGKGLEWIGHIFYSGSTYYNPSLKSRVTISVDTSKNQFSLKLNSVTAADTAVYYCASEGGYYDIPDVWGQGTTVTVSS VL: EIVLTQSPATLSLSPGERATLSCRASQSVSNYLAWYQQKPGQAPRLLISDASNRATGIPARFSGSGSGTDFTLTISSLEPEDFAIYYCQQRSNWPLTFGGGTKVEIK

>  <category>
FALSE

$$$$

Would you kindly verify if Kd of CL-274698 (antibody, V domains shown, Human antibody with a kappa light chain, derived from a PCSK9 knockout mouse) VH: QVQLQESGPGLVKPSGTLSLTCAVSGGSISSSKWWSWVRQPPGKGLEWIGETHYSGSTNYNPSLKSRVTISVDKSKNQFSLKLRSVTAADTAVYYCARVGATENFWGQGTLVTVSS VL: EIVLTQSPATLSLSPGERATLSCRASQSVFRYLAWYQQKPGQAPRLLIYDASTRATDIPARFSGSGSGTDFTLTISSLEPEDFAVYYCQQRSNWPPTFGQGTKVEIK is strictly less than 0.6 nM?
TRUE
